Source listed as patent US20240270741A1.

Target: FGFR2 (Homo sapiens)
Sequence (P21802 399-821 limits assumed): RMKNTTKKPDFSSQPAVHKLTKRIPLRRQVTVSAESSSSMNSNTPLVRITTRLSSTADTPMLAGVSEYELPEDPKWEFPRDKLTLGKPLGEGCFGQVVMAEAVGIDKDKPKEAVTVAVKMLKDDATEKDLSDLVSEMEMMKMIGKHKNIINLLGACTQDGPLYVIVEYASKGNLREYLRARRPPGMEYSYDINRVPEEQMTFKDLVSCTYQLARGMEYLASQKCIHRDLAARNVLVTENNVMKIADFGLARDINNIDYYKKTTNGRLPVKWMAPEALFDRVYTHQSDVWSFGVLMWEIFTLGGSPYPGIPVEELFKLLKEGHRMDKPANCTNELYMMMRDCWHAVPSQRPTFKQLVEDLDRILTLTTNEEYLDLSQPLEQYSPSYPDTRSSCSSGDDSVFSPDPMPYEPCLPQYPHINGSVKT
Experiment: FGFR wild type enzyme assay (HTRF KinEASE-TK), FGFR2
Details: Enz FGFR2 (nM), FGFR2 wild type enzyme assay
Attribute: IC50
Value expressed in nM; do not type the unit.

For orientation, consider the following solved cases.
N#Cc1ccccc1Sc1cc(-c2cnn([C@H]3CCN(CCO)C3)c2)cn2ncc(C#N)c12 0.4
N#Cc1ccccc1Sc1cc(-c2cnn(CC(=O)N3CC[C@H](O)C3)c2)cn2ncc(C#N)c12 1
Cc1c(-c2cc(Sc3ccc(F)cc3C#N)c3c(C#N)cnn3c2)cnn1[C@H]1CCCN(CCO)C1 1
Cc1c(-c2cc(Sc3ccccc3C#N)c3c(C#N)cnn3c2)cnn1C1CCN(C(=O)N(C)C)CC1 1
N#Cc1ccccc1Sc1cc(-c2cnn(CC(=O)N3CCNCC3)c2)cn2ncc(C#N)c12 1

Ask: Form entry - test system: FGFR2 (Homo sapiens); read-out: IC50; compound: Cc1c(-c2cc(Sc3ccc(F)cc3C#N)c3c(C#N)cnn3c2)cnn1[C@H]1CC[C@H](OC(=O)[C@H](N)C(C)C)CC1
Result: 1

Ask: Form entry - test system: FGFR2 (Homo sapiens); read-out: IC50; compound: N#Cc1cc(F)ccc1Sc1cc(-c2ccc(N3CCOCC3)nc2)cn2ncc(C#N)c12
Result: 2

Ask: Form entry - test system: FGFR2 (Homo sapiens); read-out: IC50; compound: CC(=O)N1CCC(n2ncc(-c3cc(Sc4ncccc4F)c4c(C#N)cnn4c3)c2CO)CC1
Result: 259

Ask: Form entry - test system: FGFR2 (Homo sapiens); read-out: IC50; compound: CC(=O)N1CCC(n2ncc(-c3cc(Sc4ncccc4F)c4c(C#N)cnn4c3)c2F)CC1
Result: 5

Ask: Form entry - test system: FGFR2 (Homo sapiens); read-out: IC50; compound: COC(=O)N1CCC[C@H](n2cc(-c3cc(Sc4ccccc4C#N)c4c(C#N)cnn4c3)cn2)C1
Result: 1

Ask: Form entry - test system: FGFR2 (Homo sapiens); read-out: IC50; compound: N#Cc1ccccc1Sc1cc(-c2cnn([C@H]3CCCC[C@@H]3O)c2)cn2ncc(C#N)c12
Result: 0.4

Ask: Form entry - test system: FGFR2 (Homo sapiens); read-out: IC50; compound: N#Cc1ccccc1Sc1cc(-c2cnn([C@H]3CCCNC3)c2)cn2ncc(C#N)c12
Result: 0.4

Ask: Form entry - test system: FGFR2 (Homo sapiens); read-out: IC50; compound: N#Cc1ccccc1Sc1cc(-c2cnn([C@@H]3CCN(CCO)C3)c2)cn2ncc(C#N)c12
Result: 0.6

Ask: Form entry - test system: FGFR2 (Homo sapiens); read-out: IC50; compound: C[C@H](O)CCn1cc(-c2cc(Sc3ccccc3C#N)c3c(C#N)cnn3c2)cn1
Result: 1

Ask: Form entry - test system: FGFR2 (Homo sapiens); read-out: IC50; compound: CC(=O)N1[C@@H]2CC[C@H]1C[C@H](n1cc(-c3cc(Sc4ccccc4C#N)c4c(C#N)cnn4c3)c(C)n1)C2
Result: 5
